Target: DmcElp3 wild type (dimer) (Dehalococcoides mccartyi, UniProt A0A1C7D1B7 1-459)
Sequence (A0A1C7D1B7 whole entry): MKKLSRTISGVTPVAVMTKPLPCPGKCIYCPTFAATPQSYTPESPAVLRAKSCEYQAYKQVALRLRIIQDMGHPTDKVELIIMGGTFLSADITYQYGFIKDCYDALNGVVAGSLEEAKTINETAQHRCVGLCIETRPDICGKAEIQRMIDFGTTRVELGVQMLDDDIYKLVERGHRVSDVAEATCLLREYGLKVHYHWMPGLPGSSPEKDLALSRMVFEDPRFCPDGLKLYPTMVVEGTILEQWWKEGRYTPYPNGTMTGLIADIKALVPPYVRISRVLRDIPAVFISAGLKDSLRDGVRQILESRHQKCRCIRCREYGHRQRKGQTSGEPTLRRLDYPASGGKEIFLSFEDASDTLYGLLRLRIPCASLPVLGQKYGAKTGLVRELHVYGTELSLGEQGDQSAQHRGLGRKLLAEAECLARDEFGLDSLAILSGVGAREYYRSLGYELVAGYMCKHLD
Test: EMSA
attributeMeasured: Kd

Q. Which Kd is listed for D. mccartyi tRNAGlu-1 (UUC) (structured_RNA) RNA: GCCCCCAUCGUCUAGAGGCCCAGGACAGCGGCCUUUCACGCCGUCAACAGGGGUUCGAAUCCCCUUGGGGGUACCA ?
A. ~4 µM

Source: paper PMC5018218
